Origin of the recorded values: the Human Domainome abundance scans (Beltran et al. 2025)

Readings of abundance fitness for the listed variants
B1: E3 ubiquitin-protein ligase NEDD4-like, residues 539 to 589; numbered along this chain, Q96PU5 (parent)
chain: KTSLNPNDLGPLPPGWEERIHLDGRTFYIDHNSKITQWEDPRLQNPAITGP

variants of: B1; assay: abundance fitness (aPCA) (normalised: wild type 0, dead -1); higher = more abundant; growth selection in yeast, the domain comes from the species named; details: Homo sapiens
// no unit string in output, number only

Illustrative cases are given below, each with its answer.
>>> print(df.to_string())
   mutation_key  recorded_measurement
0          P13R                -0.698
1          Q44M                -0.049

# return recorded abundance fitness for entry N5Q
-0.267

# return recorded abundance fitness for entry P6F
-0.123
